Hey, just so you know, these numbers are from patent US20250042996A1.

biological target: T1, human SIGLEC-9-ECD-Fc recombinant fusion protein (human, UniProt Q9Y336 18-343); assay: BLI (ForteBio Octet Red), SIGLEC-9-ECD-Fc on anti-human Fc sensors, Fab in solution, monovalent
T1 construct: The range starts at residue 1, so it includes the signal peptide; No cleavage site is stated; Secreted from CHOK1SV cells and purified on Protein A; also called Siglec-9-ECD-huFc; S9-ECD-Fc
T1 sequence (Q9Y336 18-343): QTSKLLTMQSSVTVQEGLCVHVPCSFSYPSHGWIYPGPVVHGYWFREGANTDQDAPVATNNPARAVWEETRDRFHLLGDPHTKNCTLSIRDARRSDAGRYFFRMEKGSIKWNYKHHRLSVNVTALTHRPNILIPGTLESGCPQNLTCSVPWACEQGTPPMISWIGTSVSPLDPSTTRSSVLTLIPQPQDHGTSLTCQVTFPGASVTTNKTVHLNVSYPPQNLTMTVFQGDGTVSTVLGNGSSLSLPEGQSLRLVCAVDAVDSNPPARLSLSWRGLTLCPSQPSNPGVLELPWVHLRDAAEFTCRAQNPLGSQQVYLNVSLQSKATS
measured.attribute: kon (M⁻¹ s⁻¹)
// return numeric value only (unit: M⁻¹ s⁻¹, not printed)

# input binder: Tf83 Fab (Fab) chain 1: QVQLVQSGAEVKKPGASVKVSCKASDYTFTDYEMHWVRQAPGQGLEWMGAINPEAGGTDYAQKFQGRVTMTADTSISTAYMELSRLRSDDTAVYYCTRVWLHWGQGTLVTVSS chain 2: DIVMTQSPDSLAVSLGERVTMNCKSSQSVLYSSNQKNYLAWYQQKPGQPPKMLIYWASTRESGVPDRFSGSGSGTDFTLTISSLQAEDVAVYYCHQYLSSNTFGQGTKLEIK ; wanted: its kon
298000
